Experiment: Vero cytotoxicity test
Type: cell-based
Settings: African green monkey; Vero cells; mean ± standard deviation of three groups of parallel tests
Counter-ions that a name gives are not always drawn.
attribute_measured: CC50 (µM)
Unit µM implied. Number only.

CC50 measured on CN(C)CCC=C1c2ccccc2COc2ccccc21 [doxepin hydrochloride] = 90.7
